Where these numbers come from: ChEMBL document CHEMBL5316308

- target system: Bromodomain-containing protein 3 (Homo sapiens)
- Sequence (Q15059 whole entry): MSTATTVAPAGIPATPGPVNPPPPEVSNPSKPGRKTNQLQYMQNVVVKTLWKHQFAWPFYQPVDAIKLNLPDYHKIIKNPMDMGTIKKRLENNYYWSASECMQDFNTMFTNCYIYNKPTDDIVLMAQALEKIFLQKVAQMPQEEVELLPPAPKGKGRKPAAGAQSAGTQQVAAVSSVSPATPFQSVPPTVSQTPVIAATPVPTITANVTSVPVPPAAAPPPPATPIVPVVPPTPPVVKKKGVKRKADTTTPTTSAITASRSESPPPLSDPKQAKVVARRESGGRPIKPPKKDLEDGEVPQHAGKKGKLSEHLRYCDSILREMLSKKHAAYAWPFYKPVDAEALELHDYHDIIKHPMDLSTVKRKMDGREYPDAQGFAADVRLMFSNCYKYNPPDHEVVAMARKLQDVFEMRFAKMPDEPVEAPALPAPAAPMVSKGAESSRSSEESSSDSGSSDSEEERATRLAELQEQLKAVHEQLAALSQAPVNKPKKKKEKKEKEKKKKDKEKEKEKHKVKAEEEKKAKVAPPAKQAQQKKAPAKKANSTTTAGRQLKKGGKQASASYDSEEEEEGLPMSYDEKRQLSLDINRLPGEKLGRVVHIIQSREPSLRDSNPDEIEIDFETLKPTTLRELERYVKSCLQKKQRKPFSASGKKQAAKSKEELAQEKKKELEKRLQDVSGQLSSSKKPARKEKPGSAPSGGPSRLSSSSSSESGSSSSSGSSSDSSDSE
- assay overview: Inhibition of recombinant BRD3 BD1 (unknown origin) incubated for 120 mins by TR-FRET assay
pIC50: −log10 of the molar value.
# Lookup of reported pIC50 keyed by entry
measurement name: pIC50

>  <smiles string>
COc1cc2c(cc1-c1c(C)noc1C)[nH]c1ncnc(NCCCCCCC(=O)NO)c12

>  <experimental result>
6.95

$$$$
>  <smiles string>
COc1cc2c(cc1-c1c(C)noc1C)[nH]c1nc(C)nc(NCCCCCCC(=O)NO)c12

>  <experimental result>
5.59

$$$$

====

- System: MDA-MB-231
- assay overview: Induction of apoptosis in human MDA-MB-231 cells assessed as late apoptotic cells at 5 uM incubated for 48 hrs by Annexin V-FITC/PI staining based flow cytometry relative to control
- Assay type: functional

>  <smiles string>
COc1cc2c(cc1-c1c(C)noc1C)[nH]c1nc(C)nc(NCCCCCCC(=O)NO)c12

>  <target system>
MDA-MB-231

>  <unit>
%

>  <Activity>
46.61

$$$$
>  <smiles string>
COc1cc2c(cc1-c1c(C)noc1C)[nH]c1ncnc(NCCCCCCC(=O)NO)c12

>  <target system>
MDA-MB-231

>  <unit>
%

>  <Activity>
58.39

$$$$
>  <smiles string>
COc1cc2c(cc1-c1c(C)noc1C)[nH]c1nc(C)nc(Nc3cc(C4CC4)nn3C)c12

>  <target system>
MDA-MB-231

>  <unit>
%

>  <Activity>
9.99

$$$$
>  <smiles string>
O=C(CCCCCCC(=O)Nc1ccccc1)NO

>  <target system>
MDA-MB-231

>  <unit>
%

>  <Activity>
22.96

$$$$

====

- Tested on: Cryptococcus neoformans
- assay overview: Antifungal activity against Cryptococcus neoformans H99 assessed as fungal growth inhibition measured after 48 hrs by CLSI based micro-dilution broth method
- Assay type: functional

>  <smiles string>
COc1cc2c(cc1-c1c(C)noc1C)[nH]c1nc(C)nc(NCCCCCC(=O)NO)c12

>  <MIC80 (µg/mL)>
32

$$$$
>  <smiles string>
COc1cc2c(cc1-c1c(C)noc1C)[nH]c1nc(C)nc(NCCCCCCC(=O)NO)c12

>  <MIC80 (µg/mL)>
8

$$$$
>  <smiles string>
COc1cc2c(cc1-c1c(C)noc1C)[nH]c1ncnc(NCCCCCC(=O)Nc3ccc(/C=C/C(=O)NO)cc3)c12

>  <MIC80 (µg/mL)>
2

$$$$
>  <smiles string>
COc1cc2c(cc1-c1c(C)noc1C)[nH]c1ncnc(Nc3ccc(/C=C/C(=O)NO)cc3)c12

>  <MIC80 (µg/mL)>
16

$$$$

====

- target system: Histone deacetylase 8 (Homo sapiens)
- Sequence (Q9BY41 whole entry): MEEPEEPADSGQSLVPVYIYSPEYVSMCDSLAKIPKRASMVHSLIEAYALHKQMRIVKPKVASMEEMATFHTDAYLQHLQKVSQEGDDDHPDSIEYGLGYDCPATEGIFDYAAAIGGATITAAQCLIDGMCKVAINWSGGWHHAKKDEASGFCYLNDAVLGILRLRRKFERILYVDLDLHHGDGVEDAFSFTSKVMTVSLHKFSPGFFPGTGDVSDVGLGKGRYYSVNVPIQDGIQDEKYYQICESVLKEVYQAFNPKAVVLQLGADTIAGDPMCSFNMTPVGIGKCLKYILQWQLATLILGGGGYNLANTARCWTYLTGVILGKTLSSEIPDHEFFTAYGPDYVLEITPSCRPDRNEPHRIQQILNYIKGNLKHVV
- assay overview: Inhibition of C-terminal His-tagged full-length recombinant human HDAC8 expressed in baculovirus infected Sf9 insect cells using Ac-Leu-Gly-Lys(Tfa)-AMC as substrate incubated for 30 mins by fluorescence based assay
pIC50: −log10 of the molar value.
measurement name: pIC50

>  <smiles string>
COc1cc2c(cc1-c1c(C)noc1C)[nH]c1nc(C)nc(NCCCCCCC(=O)NO)c12

>  <measurement name>
pIC50

>  <experimental result>
6.11

$$$$
>  <smiles string>
COc1cc2c(cc1-c1c(C)noc1C)[nH]c1ncnc(NCCCCCCC(=O)NO)c12

>  <measurement name>
pIC50

>  <experimental result>
6.11

$$$$
